Measured values drawn from patent US20250066499A1 for this set.

# System: T1, human CD73-His protein (human, UniProt P21589 27-549)
# T1 construct: Expressed in HEK-293F with a signal peptide that is not specified; In the ELISAs it was biotinylated with EZ-Link NHS-Biotin (CD73-biotin) and captured on streptavidin; in SPR and the enzyme assay it was used as CD73-His; also called CD73-his antigen; CD73-biotin
# T1 sequence: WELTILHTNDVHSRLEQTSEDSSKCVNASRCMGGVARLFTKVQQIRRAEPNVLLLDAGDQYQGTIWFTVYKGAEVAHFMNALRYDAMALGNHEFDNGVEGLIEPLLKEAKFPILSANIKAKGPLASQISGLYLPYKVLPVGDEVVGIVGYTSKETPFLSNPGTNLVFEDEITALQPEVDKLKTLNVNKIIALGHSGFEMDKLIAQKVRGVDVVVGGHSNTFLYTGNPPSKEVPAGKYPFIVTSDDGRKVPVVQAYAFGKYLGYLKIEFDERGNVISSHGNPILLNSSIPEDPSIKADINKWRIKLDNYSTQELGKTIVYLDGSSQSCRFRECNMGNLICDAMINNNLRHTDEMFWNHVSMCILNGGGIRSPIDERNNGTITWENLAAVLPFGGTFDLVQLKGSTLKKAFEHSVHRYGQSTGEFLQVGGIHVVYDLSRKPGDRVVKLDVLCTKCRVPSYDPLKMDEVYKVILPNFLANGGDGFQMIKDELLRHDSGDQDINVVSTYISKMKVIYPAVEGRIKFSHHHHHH
# Assay method text: ELISA, biotinylated CD73-His on streptavidin plate
The entries below come with measured EC50 values attached.
Endpoint label: EC50 (nM)

INSERT INTO results (binder, reported_result) VALUES
  ('56B10-HuV33 (antibody, human IgG4, V domains shown, Humanized) VH: QVQLQQSGAEVKKPGASVKVSCKASGYTFTRYYIYWVRQRPGQGLEWIGWIYPGNFNTKYNEKFKGRATLTADTSASTAYMELSSLTSEDTAVYYCARDVYDYAGFAYWGQGTLVTVSS VL: DIQMTQSPSFLSASVGDRVTITCKASQGVATAVAWYQQKPGKSPKLLIYWASTRHTGVPSRFSGSGSGTEFTLTISSLQPEDFATYFCQQYSSYPWTFGQGTKVEIK', 0.112),
  ('48A11-HuV23 (antibody, human IgG4, V domains shown, Humanized) VH: QVQLVQSGAEVKKPGASVKVSCKASGYTFTSYWMHWVRQAPGQGLEWIGEINPSIGRTNYNEKFKSRATLTVDKSTSTAYMELSSLRSEDTAVYYCARRVYGTMDYWGQGTLVTVSS VL: DIQMTQSPSSLSASVGDRVTITCKASQDINSYLSWFQQKPGKSPKLLIYRANIWVDGVPSRFSGSGSGQDYTFTISSLQPEDIATYYCLQYDELYTFGQGTKVEIK', 0.081),
  ('56B10-HuV31 (antibody, human IgG4, V domains shown, Humanized) VH: QVQLQQSGAEVKKPGASVKVSCKASGYTFTRYYIYWVRQRPGQGLEWIGWIYPGNFNTKYNEKFKGRATLTADTSASTAYMELSSLTSEDTAVYYCARDVYDYAGFAYWGQGTLVTVSS VL: DIQLTQSPSFLSASVGDRVTITCKASQGVATAVAWYQQKPGQSPKLLIYWASTRHTGVPDRFSGSGSGTEFTLTISSLQPEDFATYYCQQYSSYPWTFGQGTKVEIK', 0.079),
  ('48A11-ch (antibody, human IgG4 S228P, kappa, V domains shown, Chimeric: murine variable regions spliced with human IgG4 (S228P) and human kappa constant regions; also called chimeric antibody 48A11-ch) VH: QVQLQQPGAELVKPGASVKLSCKASGYTFTSYWMHWVKQRPGQGLEWIGEINPSIGRTNYNEKFKSKATLTVDKSSSTAFMQLSSLTSEDSAVYYCARRVYGTMDYWGQGTSVTVSS VL: DIKMTQSPSSMYASLGERVTITCKASQDINSYLSWFQQKPGKSPKTLIYRANIWVDGVPSRFSGSGSGQDYSLTISSLEYEDMGIYYCLQYDELYTFGGGTKLEIKR', 0.058),
  ('56B10-ch (antibody, human IgG4 S228P, kappa, V domains shown, Chimeric: murine variable regions spliced with human IgG4 (S228P) and human kappa constant regions; also called chimeric antibody 56B10-ch) VH: QVQLQQSGPELVKPGASVRISCKTSGYTFTRYYIYWVKQRPGQGLEWIGWIYPGNFNTKYNEKFKGKATLTADTSSSTAYMQLSSLTSEDSAVYFCARDVYDYAGFAYWGQGTLVTVSA VL: DIVMTQSHRFLSTSVGDRVSITCKASQGVATAVAWYQQKPGQSPKLLIYWASTRHTGVPDRFTGSGSGTDFTLTISNVQSEDLADYFCQQYSSYPWTFGGGTKLEIKR', 0.07);
